System: PC-3
Experimental Protocol: NCI tumour cell line growth inhibition, 48 h
Activity calls are given as the source filed them. Cut-off read from the data, not from the text of the source: active = GI50 up to about 1.1 µM and inactive = higher. Where a SMILES comes first, the peptide text is derived from it. The star is where a group is joined. Boc = CC(C)(C)OC(=O)*
Please go through the items and note down their GI50.

Check out these entries, answers already filled in.
- CC1(CCCCO)C=CC(S(=O)(=O)c2ccccc2)CC1 (configuration not stated): 4.11 µM (inactive)
- CC1(C)CC(=O)C(=CNC(N)=S)C(=O)C1: > 100 µM (inactive)

Please give GI50 for each item listed below.
1. Nc1nc2c(c(-c3cccc(Cl)c3)n1)COC/C2=C\c1cccc(Cl)c1
2. O=C1NC(N2CCCC(CO)C2)=N/C1=C\c1ccccc1 (configuration not stated)
3. O=C(O)c1ccc(/C=N\N(CCO)C2=NCCN2)cc1
4. COC(=O)C(Cc1c[nH]c2ccccc12)NC(=O)C(Cc1c[nH]c2ccccc12)NC(=O)C(Cc1c[nH]c2ccccc12)NC(=O)OC(C)(C)C (stereo not drawn) (Boc-Trp-Trp-Trp-OMe; configuration not given here)
5. COc1cc(Br)cc2nc(-c3cccs3)oc12

1. > 100 µM (inactive)
2. > 100 µM (inactive)
3. > 100 µM (inactive)
4. 15.9 µM (inactive)
5. > 100 µM (inactive)

---

System: DU-145
Experimental Protocol: NCI tumour cell line growth inhibition, 48 h
Active and inactive are the calls of the source. No stated cut-off is given here; in the data, active = GI50 up to about 1.1 µM and inactive = higher.
Test Readout: GI50

Check out these entries, answers already filled in.
• COc1nc2ccc(COc3ccc(C(=O)O)cc3)cc2nc1OC = > 100 µM (inactive)
• CC(C)(C)OC(=O)NCCCCC1NC(=O)[C@@H]2Cc3c([nH]c4ccccc34)C(c3ccccc3)N2C1=O (stereo not given in full) = 49.2 µM (inactive)
• CC(C)(C)[Si](C)(C)OCC1OC(n2ccc(=O)[nH]c2=O)C(O[Si](C)(C)C(C)(C)C)/C1=N/O (stereo not given) = 9.29 µM (inactive)
• Oc1ccc(Cl)cc1-c1cc(-c2ccccc2)nc(S)n1 = > 100 µM (inactive)

State its GI50 for this molecule: NC1=Nc2ccccc2Sc2nccn21 37.7 µM (inactive)

---

Test system: SF-539
Experimental Protocol: NCI tumour cell line growth inhibition, 48 h
Activity calls are given as the source filed them. Cut-off read from the data, not from the text of the source: active = GI50 up to about 1.1 µM and inactive = higher.
Test Readout: GI50

* COc1cc(/C=C(/C#N)C(N)=O)ccc1O | > 100 µM (inactive)
* N#CC(C(=O)c1ccccc1F)c1nc2cc(C(F)(F)F)ccc2s1 (stereo not given) | 33.4 µM (inactive)

Please give GI50 for each item listed below.
1. O=C(O)Cc1ccc(Oc2nc3ccccc3nc2C(=O)O)cc1
2. O=C1N2Cc3c4ccc5c3CN3C(=O)N6Cc7c(ccc(c7CN1C6(c1ccccc1)C23c1ccccc1)OCCOCCNCCOCCO4)OCCOCCNCCOCCO5 (stereo not given)
3. NCCCN1CCN(CCCNc2ccc3ncn4c5ccccc5c(=O)c2c34)CC1
4. COc1cc(S(=O)(=O)N/N=C/C=C/c2ccccc2)c(OC)cc1NC(C)=O

1: > 100 µM (inactive); 2: 56.9 µM (inactive); 3: 1.42 µM (inactive); 4: 5.26 µM (inactive)

Please give GI50 for each item listed below.
1. COc1cc(/C=C/C=C2\CC(C)C/C(=C\C=C\c3ccc(O)c(OC)c3)C2=O)ccc1O (stereo not given)
2. O=C(NCCNCCO)N/N=C/c1ccc([N+](=O)[O-])cc1
3. c1ccc(C2=NOC3COc4ccccc4OCC23)cc1 (stereo not given)
4. COc1ccc(OC)c2[nH]c(Sc3c([N+](=O)[O-])ncn3C)nc12

1: 22.1 µM (inactive); 2: > 100 µM (inactive); 3: > 100 µM (inactive); 4: 18 µM (inactive)

---

Test system: NCI-H522
Experimental Protocol: NCI tumour cell line growth inhibition, 48 h
Activity calls are given as the source filed them. No stated cut-off is given here; in the data, active = GI50 up to about 1.1 µM and inactive = higher.
Respond using exactly one of the listed classes: YES (active), NO (inactive)

Consider the following illustrative entries.
• CC(C)(C)C1=CC(=CC=C2C=CN(CCCCCCCCCCCO)C=C2)C=C(C(C)(C)C)C1=O = YES
• COc1ccc(C2=C(Cl)c3cc(OC)c(OC)cc3C2=O)cc1OC = NO
• NC(=S)N/N=C(\CC1OC(=O)c2ccccc21)c1ccc(Cl)cc1 (stereo not drawn) = NO
• CC(C)(O)/C=C\P(C)(=O)c1ccccc1 (stereo not drawn) = NO
• O=C(CO)CC(=O)C(=O)Nc1nc([N+](=O)[O-])cs1 = NO
• CC(=O)OC1CCC2C3CCc4c(C)ccc(OS(=O)(=O)c5ccccc5)c4C3CCC12C (stereo not drawn) = NO

Dear colleague, could you share the recorded outcome for Cc1ccc(S(=O)(=O)N/N=C\c2c3ccccc3[n+]([O-])c3ccccc23)cc1 when you have a moment? NO

Dear colleague, could you share the recorded outcome for Cn1c(=O)c2c(ncn2CCNC(CO)C(O)c2ccc([N+](=O)[O-])cc2)n(C)c1=O (stereo not drawn) when you have a moment? NO

Dear colleague, could you share the recorded outcome for COCOCC/C=C/C=O when you have a moment? NO

Dear colleague, could you share the recorded outcome for O=C1NC(N2CCCC(CO)C2)=N/C1=C\c1ccccc1 (stereo not drawn) when you have a moment? NO

Dear colleague, could you share the recorded outcome for CC(Oc1ccc(Oc2cnc3ccc(Cl)cc3n2)cc1)C(=O)O (stereo not drawn) when you have a moment? NO

Dear colleague, could you share the recorded outcome for OCN(CO)c1ccc2c(c1)Cc1cc(F)ccc1-2 when you have a moment? NO

Dear colleague, could you share the recorded outcome for CC1(C)C(=O)C(C)(C)C1=NNC(N)=S when you have a moment? NO

---

Please go through the items and note down their GI50.
Test system: IGROV-1
Experimental Protocol: NCI tumour cell line growth inhibition, 48 h
Activity calls are given as the source filed them. Rule as the data show it: active = GI50 up to about 1.1 µM and inactive = higher.

* COC1=C(OC)C(=O)C(Cc2c(Cl)nc3sc(C)cn23)=C(C)C1=O | 17.8 µM (inactive)
* CCC(CCCC[C@H]1CC[C@@H]2CC(=O)C[C@H]12)OC (stereo not given in full) | > 100 µM (inactive)

Please give GI50 for each item listed below.
1. COC(=O)c1cc(C)n(CN(Cc2ccccc2)Cn2nc(C(=O)OC)cc2C)n1
2. S=C(c1c[nH]c2ccccc12)N1CCCCC1
3. COc1cc(C)c2c(c1C)OC(=O)c1c(C)c(Cl)c(O)c(C=O)c1O2
4. CCc1oc2ccc(OC)c3c2c1C=CC=C3

1. > 66.1 µM (inactive)
2. 67.9 µM (inactive)
3. 24.2 µM (inactive)
4. > 100 µM (inactive)

Please give GI50 for each item listed below.
1. COc1cc(/C=C/C=C2\CC(C)C/C(=C\C=C\c3ccc(O)c(OC)c3)C2=O)ccc1O (stereo not given)
2. Cc1nc2c(n1Cc1ccc(F)cc1)C(=O)c1ccccc1C2=O
3. O=C(/C=C/c1ccc2ccccc2c1)NCc1ccc(C(=O)NCc2ccccc2)cc1

8.41 µM (inactive)
25.8 µM (inactive)
> 70 µM (inactive)

State its GI50 for this molecule: CC(C)(C)c1cc(C(P(=O)(c2ccccc2)c2ccccc2)P(=O)(c2ccccc2)c2ccccc2)cc(C(C)(C)C)c1O 3.12 µM (inactive)

---

System: NCI/ADR-RES
Experimental Protocol: NCI tumour cell line growth inhibition, 48 h
Activity calls are given as the source filed them. Cut-off read from the data, not from the text of the source: active = GI50 up to about 1.1 µM and inactive = higher.
Please go through the items and note down their GI50.

Check out these entries, answers already filled in.
- COC(=O)c1cc2c(o1)Sc1ccccc1NC2=O: > 100 µM (inactive)
- COc1cc(/C=C/C=C2\CC(C)C/C(=C\C=C\c3ccc(O)c(OC)c3)C2=O)ccc1O (stereo unspecified): 25.1 µM (inactive)
- COc1cccc(C2c3cc4c(cc3OC(N3CCOCC3)C2C)OCO4)c1OC (stereo unspecified): 4.58 µM (inactive)
- NCCCN1CCN(CCCNc2ccc3ncn4c5ccccc5c(=O)c2c34)CC1: 13.7 µM (inactive)
- COC1=C(OC)C(=O)C(Cc2c(Cl)nc3sc(C)cn23)=C(C)C1=O: 14.6 µM (inactive)

Lab note: next molecule to report on.
State its GI50 for this molecule: O=C1/C(=C/c2ccccc2S)N=C(c2ccccc2)N1c1nc2ccc(Sc3ccccc3)cc2[nH]1 22 µM (inactive)

---

Test system: SW-620
Experimental Protocol: NCI tumour cell line growth inhibition, 48 h
Activity calls are given as the source filed them. Cut-off read from the data, not from the text of the source: active = GI50 up to about 1.1 µM and inactive = higher.
Respond using exactly one of the listed classes: active, inactive

* CCOC(=O)c1c2c(n(Cc3ccccc3)c1C)C(=O)C(=O)c1ccccc1-2 | active
* CC(C)[C@H](NC(=O)[C@H](N)Cc1ccc(N(CCCl)CCCl)cc1)C(=O)O | inactive
* Oc1ccc(Cl)cc1-c1cc(-c2ccccc2)nc(S)n1 | inactive
* CC(=O)CCn1[nH]c(=O)c(Cl)c(Cl)c1=O | inactive
* CC(C)(O)/C=C\P(C)(=O)c1ccccc1 (configuration not stated) | inactive

Dear colleague, could you share the recorded outcome for CC(=O)c1cc(C)n2c1CS[C@@H]2c1ccccc1 when you have a moment? inactive

Dear colleague, could you share the recorded outcome for CN(C)c1ccc(O[Si](Oc2ccc(N(C)C)cc2)(Oc2ccc(N(C)C)cc2)Oc2ccc(N(C)C)cc2)cc1 when you have a moment? inactive

Dear colleague, could you share the recorded outcome for O=C(Cn1cc(-c2ccccc2)nn1)NC1CCCC1 when you have a moment? inactive
